Target: PTPN2 (Homo sapiens)
Construct: expressed in transfected cells; host or cells: 293T (293T.109 HiBiT-PTPN2 line; parental 293T WT from ATCC)
Sequence (P17706 whole entry, species assumed): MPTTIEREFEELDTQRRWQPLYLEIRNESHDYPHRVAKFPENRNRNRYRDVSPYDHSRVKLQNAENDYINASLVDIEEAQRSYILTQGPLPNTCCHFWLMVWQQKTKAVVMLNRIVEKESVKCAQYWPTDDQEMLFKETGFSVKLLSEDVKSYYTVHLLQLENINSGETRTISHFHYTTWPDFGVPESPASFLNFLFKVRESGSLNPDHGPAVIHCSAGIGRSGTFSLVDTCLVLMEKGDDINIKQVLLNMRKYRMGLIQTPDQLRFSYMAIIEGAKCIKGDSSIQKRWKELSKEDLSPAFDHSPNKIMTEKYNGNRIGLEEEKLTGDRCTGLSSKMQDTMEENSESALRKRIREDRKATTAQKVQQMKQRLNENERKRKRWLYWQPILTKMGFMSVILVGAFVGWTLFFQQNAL
Experiment: HiBiT-Degradation 293T.109 PTPN2 (Nano-Glo HiBiT Lytic Assay)
Format: cell-based
Details: 293T.109 (HiBiT-PTPN2) cells, 24.0 hours
List of DC50 values.

Sample records with DC50:
Compound	DC50
O=C1CCC(N2Cc3cc(NCc4cnn(CCC(=O)Nc5ccc6c(F)c(N7CC(=O)NS7(=O)=O)c(O)cc6c5)c4)ccc3C2=O)C(=O)N1 (centres unmarked)	50 to 200 nM
O=C(CCOCCOCCn1cc(CNc2cccc3c2C(=O)N(C2CCC(=O)NC2=O)C3=O)nn1)NCCOc1ccc2cc(O)c(N3CC(=O)NS3(=O)=O)c(F)c2c1 (centres unmarked)	≥ 1000 nM
Cn1c(=O)n(C2CCC(=O)NC2=O)c2ccc(C3CN(CC(=O)NCCOc4ccc5cc(O)c(N6CC(=O)NS6(=O)=O)c(F)c5c4)C3)cc21 (centres unmarked)	200 to 1000 nM

// field: DC50; key: Cn1c(=O)n(C2CCC(=O)NC2=O)c2ccc(C3CCN(CC(=O)N4CCC(c5ccc6cc(O)c(N7CC(=O)NS7(=O)=O)c(F)c6c5)C4)CC3)cc21 (centres unmarked) ; value = 50 to 200 nM

// field: DC50; key: Cn1c(=O)n(C2CCC(=O)NC2=O)c2ccc([C@H]3CC[C@H](CNC(=O)c4ccc5c(F)c(N6CC(=O)NS6(=O)=O)c(O)cc5c4)CC3)cc21 (single isomer, unassigned) ; value = 10 to 50 nM
